- MEASURED ON: kinases (Homo sapiens, UniProt P10721, D816H)
- Construct: purchased Eurofins/DiscoveRx; host or cells: E. coli BL21-derived host (T7 phage display) for most kinases; HEK-293 for the rest
- Sequence (P10721 26-976 D816H): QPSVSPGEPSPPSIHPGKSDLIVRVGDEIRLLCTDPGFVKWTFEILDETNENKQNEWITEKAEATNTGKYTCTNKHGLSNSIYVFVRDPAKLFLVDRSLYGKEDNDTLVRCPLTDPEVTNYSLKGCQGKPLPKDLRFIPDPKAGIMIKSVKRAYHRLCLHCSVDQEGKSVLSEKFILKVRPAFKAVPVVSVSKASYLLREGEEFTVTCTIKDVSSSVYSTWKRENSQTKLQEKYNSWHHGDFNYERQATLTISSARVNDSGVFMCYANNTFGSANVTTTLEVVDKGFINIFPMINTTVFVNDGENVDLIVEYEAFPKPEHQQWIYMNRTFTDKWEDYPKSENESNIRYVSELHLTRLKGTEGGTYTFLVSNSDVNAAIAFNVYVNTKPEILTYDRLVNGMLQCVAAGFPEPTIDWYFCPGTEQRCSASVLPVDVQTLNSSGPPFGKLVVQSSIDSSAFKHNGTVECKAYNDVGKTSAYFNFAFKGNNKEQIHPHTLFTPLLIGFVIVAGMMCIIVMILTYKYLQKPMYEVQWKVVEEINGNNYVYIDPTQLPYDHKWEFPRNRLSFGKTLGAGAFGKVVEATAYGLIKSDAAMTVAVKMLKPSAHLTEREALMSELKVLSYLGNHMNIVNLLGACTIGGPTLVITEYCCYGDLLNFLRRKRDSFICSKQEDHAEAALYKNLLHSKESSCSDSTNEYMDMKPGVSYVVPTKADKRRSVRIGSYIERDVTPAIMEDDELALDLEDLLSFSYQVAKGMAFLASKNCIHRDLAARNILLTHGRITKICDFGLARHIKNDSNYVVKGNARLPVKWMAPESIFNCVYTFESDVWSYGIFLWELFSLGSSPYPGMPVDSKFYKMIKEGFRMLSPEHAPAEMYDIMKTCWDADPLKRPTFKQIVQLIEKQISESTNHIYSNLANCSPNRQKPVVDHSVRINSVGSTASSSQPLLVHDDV
- METHOD: KINOMEscan kinase binding assay (Eurofins/DiscoveRx), % Ctrl
- PARTICULARS: 1 μM; target KIT(D816H)
RECORDED ENDPOINT: % Ctrl, KIT(D816H) (% Ctrl)

> print(dat)
                                        smi   recorded.endpoint  result.value
1  Cc1cc2c([nH]1)/C=C1\C(=O)Nc3ccc(cc31)-c1c(noc1C(C)C)COCCN(C)C2=O  % Ctrl, KIT(D816H)           100
2  Cc1cc2c([nH]1)/C=C1\C(=O)Nc3ccc(cc31)-c1cnn(C)c1OCCCN(C)C2=O  % Ctrl, KIT(D816H)            10
3  Cc1cc2c([nH]1)/C=C1\C(=O)Nc3cc(Cl)c(cc31)SCCOCCN(C)C2=O  % Ctrl, KIT(D816H)           8.3

(1) CN1CCOc2cc3c(cc2Cl)NC(=O)/C3=C\c2[nH]ccc2C(=O)N(C)CC1
(2) Cc1cc2c([nH]1)/C=C1\C(=O)Nc3cnc(cc31)-c1cnn(C)c1CN(C)CCN(C)C2=O
Which is greater in % Ctrl, KIT(D816H), the first item 1 or the second item 2 ? In your reply, give the label of the chosen option. 1
(1: 22 % Ctrl, 2: 6.4 % Ctrl)

====

- MEASURED ON: kinases (Homo sapiens)
- Construct: purchased Eurofins/DiscoveRx; host or cells: E. coli BL21-derived host (T7 phage display) for most kinases; HEK-293 for the rest
- METHOD: KINOMEscan kinase binding assay (Eurofins/DiscoveRx), % Ctrl
- PARTICULARS: target KIT; 1 μM
RECORDED ENDPOINT: % Ctrl, KIT (% Ctrl)

> print(dat)
                                   compound  recorded.endpoint  result.value
1  Cc1cc2c([nH]1)/C=C1\C(=O)Nc3cc(Cl)c(cc31)OCCO[C@@H](C(=O)N1CCN(C)CC1)CN(C)C2=O [Ex. 138]        % Ctrl, KIT            90
2  Cc1cc2c([nH]1)/C=C1\C(=O)Nc3ccc(cc31)-c1c(C)nn(C)c1COCCN(C)C2=O [Ex. 146]        % Ctrl, KIT            96
3  Cc1cc2c([nH]1)/C=C1\C(=O)Nc3ccc(cc31)-c1c(noc1C)CNCCN(C)C2=O [Ex. 139]        % Ctrl, KIT            94
4  Cc1nn(C)c2c1-c1ccc3c(c1)/C(=C/c1[nH]ccc1C(=O)N(C)CCCO2)C(=O)N3 [Ex. 150]        % Ctrl, KIT            97

(I) CN1CCSCCOc2cc3c(cc2Cl)NC(=O)/C3=C\c2[nH]ccc2C1=O [Ex. 153]
(II) Cc1cc2c([nH]1)/C=C1\C(=O)Nc3cnc(cc31)-c1cn[nH]c1CNCCN(C)C2=O [Ex. 55]
(III) CN1CCOCCOc2cc3c(cc2Cl)NC(=O)/C3=C\c2[nH]ccc2C1=O [Ex. 143]
# rank_down: sort by % Ctrl, KIT, max first Reply format: the labels, ordered as requested. II, III, I
(II: 74 % Ctrl, III: 9.9 % Ctrl, I: 0.8 % Ctrl)

====

- MEASURED ON: kinases (Homo sapiens, UniProt P00519, T315I)
- Construct: purchased Eurofins/DiscoveRx; host or cells: E. coli BL21-derived host (T7 phage display) for most kinases; HEK-293 for the rest
- METHOD: KINOMEscan kinase binding assay (Eurofins/DiscoveRx), % Ctrl
- PARTICULARS: 1 μM; ABL1(T315I)-nonphosphorylated
RECORDED ENDPOINT: % Ctrl, ABL1(T315I)-nonphosphorylated (% Ctrl)

Solved entries:
> print(dat)
                                        smi                      recorded.endpoint  unit.abbrev  result.value
1  Cc1cc2c([nH]1)/C=C1\C(=O)Nc3ccc(cc31)O[C@@H](C)COCCN(C)C2=O  % Ctrl, ABL1(T315I)-nonphosphorylated       % Ctrl            12
2  Cc1cc2c([nH]1)/C=C1\C(=O)Nc3cc(Cl)c(cc31)OCCO[C@@H](C(=O)N[C@@H]1CCNC1)CN(C)C2=O  % Ctrl, ABL1(T315I)-nonphosphorylated       % Ctrl            77
3  Cc1cc2c([nH]1)/C=C1\C(=O)Nc3ccc(cc31)-c1c(noc1C)COCCN(C)C2=O  % Ctrl, ABL1(T315I)-nonphosphorylated       % Ctrl            20
4  Cc1cc2c([nH]1)/C=C1\C(=O)Nc3cc(Cl)c(cc31)OCCO[C@@H](C(=O)NC1CNC1)CN(C)C2=O  % Ctrl, ABL1(T315I)-nonphosphorylated       % Ctrl            94
5  Cc1cc2c([nH]1)/C=C1\C(=O)Nc3ccc(cc31)OCCOCCN(C)C2=O  % Ctrl, ABL1(T315I)-nonphosphorylated       % Ctrl           4.5
6  Cc1cc2c([nH]1)/C=C1\C(=O)Nc3cc(Cl)c(cc31)OCCO[C@@H](C(=O)NC1CCNCC1)CN(C)C2=O  % Ctrl, ABL1(T315I)-nonphosphorylated       % Ctrl            84

(I) CNC(=O)[C@H]1CN(C)C(=O)c2cc(C)[nH]c2/C=C2\C(=O)Nc3cc(Cl)c(cc32)OCCO1
(II) Cc1cc2c([nH]1)/C=C1\C(=O)Nc3ccc(cc31)-c1cnn(C)c1COCCN(C)C2=O
Hi, I'm comparing two records. Which one has the lower % Ctrl, ABL1(T315I)-nonphosphorylated, I or II ? Please respond with the label that marks your chosen entry. II

(1) Cc1cc2c([nH]1)/C=C1\C(=O)Nc3cc(Cl)c(cc31)OCCO[C@@H](C(=O)N(C)C)CN(C)C2=O
(2) Cc1cc2c([nH]1)/C=C1\C(=O)Nc3ccc(cc31)-c1cnn(C)c1CN(C)CCN(C)C2=O
Determine, for 1 and 2 , which has the greater value of % Ctrl, ABL1(T315I)-nonphosphorylated. Give the label under which the chosen entry appears. 1
(1: 81 % Ctrl, 2: 0 % Ctrl)

(P) Cc1cc2c([nH]1)/C=C1\C(=O)Nc3ccc(cc31)-c1ccnn1CCOCCNC2=O
(Q) Cc1cc2c([nH]1)/C=C1\C(=O)Nc3cc(Cl)c(cc31)OCCOCCN(C)C2=O
Problem: Given the entries P and Q , determine which has the lower reported % Ctrl, ABL1(T315I)-nonphosphorylated. Answer format: the label of the selected item. Q
(Q: 0 % Ctrl, P: 95 % Ctrl)

====

- MEASURED ON: kinases (Homo sapiens)
- Construct: purchased Eurofins/DiscoveRx; host or cells: E. coli BL21-derived host (T7 phage display) for most kinases; HEK-293 for the rest
- METHOD: KINOMEscan kinase binding assay (Eurofins/DiscoveRx), % Ctrl
- PARTICULARS: 1 μM; target RET
RECORDED ENDPOINT: % Ctrl, RET (% Ctrl)

Before answering, review these 3 worked examples.
> print(dat)
                                   compound  recorded.endpoint  result.value
1  Cc1cc2c([nH]1)/C=C1\C(=O)Nc3cnc(cc31)-c1cnn(C)c1CN(C)CCN(C)C2=O [Ex. 172]        % Ctrl, RET           3.1
2  Cc1cc2c([nH]1)/C=C1\C(=O)Nc3ccc(cc31)-c1cnn(C)c1OCCCN(C)C2=O [Ex. 166]        % Ctrl, RET           7.1
3  CN1CCOc2cc3c(cc2Cl)NC(=O)/C3=C\c2[nH]ccc2C(=O)N(C)CC1 [Ex. 164]        % Ctrl, RET             0

(A) Cc1cc2c([nH]1)/C=C1\C(=O)Nc3cc(Cl)c(cc31)SCCOCCN(C)C2=O [Ex. 169]
(B) Cc1cc2c([nH]1)/C=C1\C(=O)Nc3ccc(cc31)-c1c(noc1C(C)C)COCCN(C)C2=O [Ex. 161]
Could you tell me which of A and B has the lower % Ctrl, RET reading? Identify your selection by its label. A
(A: 0 % Ctrl, B: 97 % Ctrl)

====

- MEASURED ON: kinases (Homo sapiens)
- Construct: purchased Eurofins/DiscoveRx; host or cells: E. coli BL21-derived host (T7 phage display) for most kinases; HEK-293 for the rest
- Sequence (P36888 27-993): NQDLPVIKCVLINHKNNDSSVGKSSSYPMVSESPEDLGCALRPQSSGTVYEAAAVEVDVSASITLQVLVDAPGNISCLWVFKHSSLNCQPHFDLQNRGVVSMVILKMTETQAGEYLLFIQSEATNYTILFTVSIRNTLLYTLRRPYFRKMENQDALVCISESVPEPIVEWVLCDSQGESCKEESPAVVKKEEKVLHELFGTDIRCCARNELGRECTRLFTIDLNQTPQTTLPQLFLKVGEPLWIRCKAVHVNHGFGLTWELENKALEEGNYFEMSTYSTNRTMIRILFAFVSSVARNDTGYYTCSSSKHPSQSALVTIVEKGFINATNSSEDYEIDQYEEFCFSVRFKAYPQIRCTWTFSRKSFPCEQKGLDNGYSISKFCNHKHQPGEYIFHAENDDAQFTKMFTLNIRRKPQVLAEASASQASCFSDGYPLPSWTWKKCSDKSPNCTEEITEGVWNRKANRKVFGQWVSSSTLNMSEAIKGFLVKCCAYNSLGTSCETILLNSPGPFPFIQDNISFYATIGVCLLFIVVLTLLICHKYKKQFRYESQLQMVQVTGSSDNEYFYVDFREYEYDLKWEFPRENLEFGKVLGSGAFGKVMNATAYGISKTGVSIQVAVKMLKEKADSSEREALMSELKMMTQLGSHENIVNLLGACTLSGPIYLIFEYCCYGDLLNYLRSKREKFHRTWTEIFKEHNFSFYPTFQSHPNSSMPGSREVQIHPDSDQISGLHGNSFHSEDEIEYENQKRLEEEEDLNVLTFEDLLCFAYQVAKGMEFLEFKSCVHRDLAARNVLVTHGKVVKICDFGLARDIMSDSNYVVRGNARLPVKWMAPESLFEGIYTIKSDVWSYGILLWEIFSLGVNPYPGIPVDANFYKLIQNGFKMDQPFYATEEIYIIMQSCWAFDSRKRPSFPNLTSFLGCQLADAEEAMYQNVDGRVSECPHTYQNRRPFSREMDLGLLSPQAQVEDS
- METHOD: KINOMEscan kinase binding assay (Eurofins/DiscoveRx), % Ctrl
- PARTICULARS: target FLT3; 1 μM
RECORDED ENDPOINT: % Ctrl, FLT3 (% Ctrl)

> print(dat)
                                   molecule             measured.on  recorded.endpoint  result.value
1  Cc1nn(C)c2c1-c1ccc3c(c1)/C(=C/c1[nH]ccc1C(=O)N(C)CCCO2)C(=O)N3 [Ex. 150]  kinases (Homo sapiens)       % Ctrl, FLT3            71

(A) Cc1cc2c([nH]1)/C=C1\C(=O)Nc3cc(Cl)c(cc31)OCCO[C@@H](C(=O)N1CCN(C)CC1)CN(C)C2=O [Ex. 138]
(B) Cc1cc2c([nH]1)/C=C1\C(=O)Nc3ccc(cc31)-c1c(noc1C)CNCCN(C)C2=O [Ex. 139]
Lab note: record which item had the higher % Ctrl, FLT3, A or B . # answer = label of selected item A
